# PROCEDURE_SUMMARY: in vitro
# MEASUREMENT_PARAMETERS: human, heparinized human plasma
ATTRIBUTE_MEASURED: half-life (min)
Numeric only. Scale: min

For this compound ( CC(C)[C@H](NC(=O)[C@H](CC(=O)O)NC(=O)C(CCCCN)C(=O)N[C@@H](N)CCCNC(=N)N)C(=O)N[C@@H](Cc1ccc(O)cc1)C(=O)O (some centres unmarked) ), measured half-life is 22
